- Protocol Details: Volume of distribution at steady state in Sprague-Dawley rat at 3 mg/kg, iv measured upto 1440 mins by LC/MS/MS analysis
- Assay type: ADME, organism-based
- Measurement Context: in vivo, read-out: Vdss
Recorded Endpoint: Vd (L/kg)
Reply numerically in L/kg, unit not repeated.

Known Vd results, listed for orientation:
> print(dat)
                                smiles.repr  recorded.endpoint  result.unit  experimental.value
1  CCOc1cc2ncnc(Nc3ccc(Oc4cc5nncn5cn4)c(C)c3)c2cc1NC(=O)/C=C/[C@H]1CCCN1C                 Vd         L/kg                10.6
2  CCOc1cc2ncnc(Nc3ccc(Oc4cc5nncn5cn4)c(C)c3)c2cc1NC(=O)/C(F)=C\[C@@H]1CCCN1C                 Vd         L/kg                23.6

The compound identified as `CCOc1cc2ncnc(Nc3ccc(Oc4cc5nncn5cn4)c(C)c3)c2cc1NC(=O)/C(F)=C/[C@H]1CCCN1C` registered its Vd at 3.55
